experiment: Pharmacokinetic evaluation after intravenous or gavage administration in monkeys
Type: in vivo
assayContext: monkey, plasma, iv, i.v group, 1 mg/kg, read-out: Cmax

compound | Cmax
NC(=O)[C@@H]1C[C@H](F)CN1Cc1ccc(OCc2cccc(F)c2)cc1F [Example 3] | 1610 ng/mL

###

targetOrSystem: potassium channel of hERG (Homo sapiens)
Sequence (Q12809 whole entry): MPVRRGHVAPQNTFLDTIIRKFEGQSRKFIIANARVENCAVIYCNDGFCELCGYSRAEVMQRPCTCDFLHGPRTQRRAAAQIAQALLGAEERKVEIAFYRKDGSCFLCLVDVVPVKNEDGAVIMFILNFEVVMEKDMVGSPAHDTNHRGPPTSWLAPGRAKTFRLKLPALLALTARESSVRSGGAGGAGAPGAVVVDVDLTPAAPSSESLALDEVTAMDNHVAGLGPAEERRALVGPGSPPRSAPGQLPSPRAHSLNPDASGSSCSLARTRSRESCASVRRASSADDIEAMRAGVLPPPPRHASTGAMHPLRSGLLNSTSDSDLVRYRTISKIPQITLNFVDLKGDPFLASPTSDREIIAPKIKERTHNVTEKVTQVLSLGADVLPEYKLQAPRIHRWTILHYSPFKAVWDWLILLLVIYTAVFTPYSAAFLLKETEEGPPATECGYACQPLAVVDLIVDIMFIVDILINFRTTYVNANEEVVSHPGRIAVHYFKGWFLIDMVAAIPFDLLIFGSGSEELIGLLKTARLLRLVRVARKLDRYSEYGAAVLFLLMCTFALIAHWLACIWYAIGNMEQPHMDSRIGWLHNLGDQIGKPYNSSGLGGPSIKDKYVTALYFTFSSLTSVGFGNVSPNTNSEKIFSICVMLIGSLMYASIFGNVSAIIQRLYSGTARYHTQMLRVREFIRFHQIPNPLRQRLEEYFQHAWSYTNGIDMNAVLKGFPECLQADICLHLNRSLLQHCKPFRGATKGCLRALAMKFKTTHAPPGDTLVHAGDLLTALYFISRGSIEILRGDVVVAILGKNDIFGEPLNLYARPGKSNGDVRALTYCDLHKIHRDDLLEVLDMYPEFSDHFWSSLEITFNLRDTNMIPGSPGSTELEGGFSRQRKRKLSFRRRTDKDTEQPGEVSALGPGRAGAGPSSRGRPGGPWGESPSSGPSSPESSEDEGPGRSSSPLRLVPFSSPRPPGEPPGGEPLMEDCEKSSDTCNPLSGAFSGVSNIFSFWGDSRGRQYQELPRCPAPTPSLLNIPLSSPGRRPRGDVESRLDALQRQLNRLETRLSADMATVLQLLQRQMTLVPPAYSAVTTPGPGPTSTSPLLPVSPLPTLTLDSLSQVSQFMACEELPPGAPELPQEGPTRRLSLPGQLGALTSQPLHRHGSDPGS
experiment: Inhibitory effect on potassium channel of hERG by electrophysiological manual patch clamp
assayContext: HEK-293 cells overexpressed potassium channel of hERG, 0.37-30.00 μM, read-out: IC50 acting on hERG potassium channel
pIC50: −log10 of the molar value.

itemSmiles | pIC50
NC(=O)[C@@H]1C[C@H](F)CN1Cc1ccc(OCc2cccc(F)c2)cc1 | < 4.52

###

experiment: Pharmacokinetic evaluation after intravenous or gavage administration in rats
Assay type: in vivo, SD rats
assayContext: SD, rat, plasma, po, i.g group, 5 mg/kg
Items are presented alongside their recorded half-life.
readoutName: half-life (min)

itemSmiles | readoutName | measValue
NC(=O)[C@@H]1C[C@H](F)CN1Cc1ccc(OCc2cccc(F)c2)cc1F | half-life | 73.8
NC(=O)[C@@H]1C[C@H](F)CN1Cc1ccc(OCc2cccc(F)c2)cc1 | half-life | 33.9
NC(=O)[C@@H]1C[C@@H](F)CN1Cc1ccc(OCc2cccc(F)c2)cc1 | half-life | 39.1

###

experiment: Pharmacokinetic evaluation after intravenous or gavage administration in dogs
Assay type: in vivo, Beagle dogs
assayContext: beagle, dog, plasma, po, i.g group, 5 mg/kg
Procedure: The LC-MS/MS system comprises Agilent 1200 series vacuum degassing furnace, quaternary pumps, well-plate autosampler, thermostatted column compartment, the API4000Qtrap Triple Quadrupole Mass Spectrometer with an electrospray ionization (ESI) source. Quantitative analysis was carried out using MRM mode. The parameters for MRM transitions are in Table 2. […]

itemSmiles | resultUnits | AUC(0-t)
NC(=O)[C@@H]1C[C@H](F)CN1Cc1ccc(OCc2cccc(F)c2)cc1F | ng·h/mL | 2440
NC(=O)[C@@H]1C[C@H](F)CN1Cc1ccc(OCc2cccc(F)c2)cc1 | ng·h/mL | 4930

###

experiment: Evaluation of blood-brain barrier (BBB) after peritoneal injection in rats
Assay type: in vivo
assayContext: Sprague-Dawley, rat, cerebrospinal fluid; SD rats, intraperitoneal 10 mg/kg, 15 min; read-out: T/P Ratio CSF (cerebrospinal fluid)
// reported Kp at 15 min for each item listed

itemSmiles | Kp at 15 min
NC(=O)[C@@H]1C[C@H](F)CN1Cc1ccc(OCc2cccc(F)c2)cc1 | 0.028
NC(=O)[C@@H]1C[C@H](F)CN1Cc1ccc(OCc2cccc(F)c2)cc1F | 0.016

###

experiment: Pharmacokinetic evaluation after intravenous or gavage administration in monkeys
Format: in vivo
assayContext: monkey, plasma, iv, i.v group, 1 mg/kg

itemSmiles | half-life
NC(=O)[C@@H]1C[C@H](F)CN1Cc1ccc(OCc2cccc(F)c2)cc1F | 2.24 h

###

experiment: Pharmacokinetic evaluation after intravenous or gavage administration in rats
Format: in vivo, SD rats
assayContext: SD, rat, plasma, po, i.g group, 5 mg/kg

compound | Cmax, ng/mL
NC(=O)[C@@H]1C[C@H](F)CN1Cc1ccc(OCc2cccc(F)c2)cc1 [Example 1] | 1000
NC(=O)[C@@H]1C[C@@H](F)CN1Cc1ccc(OCc2cccc(F)c2)cc1 [Example 12] | 1010
NC(=O)[C@@H]1C[C@H](F)CN1Cc1ccc(OCc2cccc(F)c2)cc1F [Example 3] | 700

###

experiment: Pharmacokinetic evaluation after intravenous or gavage administration in rats
Type: in vivo, SD rats
assayContext: SD, rat, plasma, iv, i.v group, 1 mg/kg
Recorded Cmax, one value per entry.

compound | resultUnits | Cmax
NC(=O)[C@@H]1C[C@@H](F)CN1Cc1ccc(OCc2cccc(F)c2)cc1 [Example 12] | ng/mL | 661
NC(=O)[C@@H]1C[C@H](F)CN1Cc1ccc(OCc2cccc(F)c2)cc1F [Example 3] | ng/mL | 681
NC(=O)[C@@H]1C[C@H](F)CN1Cc1ccc(OCc2cccc(F)c2)cc1 [Example 1] | ng/mL | 690

###

log10 IC50 values by entry
targetOrSystem: Human recombinant monoamine oxidase B (Homo sapiens, UniProt P27338)
Sequence (P27338 whole entry): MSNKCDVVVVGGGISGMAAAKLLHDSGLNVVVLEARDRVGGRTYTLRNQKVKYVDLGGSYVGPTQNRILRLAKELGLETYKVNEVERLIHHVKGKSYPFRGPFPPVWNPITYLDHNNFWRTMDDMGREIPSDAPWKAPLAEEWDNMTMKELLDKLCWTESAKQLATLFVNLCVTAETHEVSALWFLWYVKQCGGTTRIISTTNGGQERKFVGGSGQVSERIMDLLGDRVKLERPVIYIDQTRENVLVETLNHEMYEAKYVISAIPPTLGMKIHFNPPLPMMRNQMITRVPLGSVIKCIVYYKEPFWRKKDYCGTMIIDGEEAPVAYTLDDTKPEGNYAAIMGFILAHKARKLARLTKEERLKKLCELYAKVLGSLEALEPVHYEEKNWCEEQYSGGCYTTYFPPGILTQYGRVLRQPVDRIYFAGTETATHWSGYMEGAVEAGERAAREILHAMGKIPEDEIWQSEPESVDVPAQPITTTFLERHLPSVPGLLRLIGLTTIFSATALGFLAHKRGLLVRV
experiment: Inhibitory effect on the activity of monoamine oxidase B
assayContext: human recombinant MAO-B, substrate benzylamine hydrochloride
readoutName: log10 IC50 (log10 of the value in nM)

compound | readoutName | measValue
NC(=O)[C@@H]1C[C@H](F)CN1Cc1ccc(OCc2cccc(F)c2)cc1 [Example 1] | log10 IC50 | 1.28
C[C@H]1C[C@@H](C(N)=O)N(Cc2ccc(OCc3cccc(F)c3)cc2)C1 [Example 14] | log10 IC50 | 1.92
NC(=O)[C@@H]1C[C@@H](F)CN1Cc1ccc(OCc2cccc(F)c2)cc1 [Example 12] | log10 IC50 | 2.86
NC(=O)[C@@H]1CC(F)(F)CN1Cc1ccc(OCc2cccc(F)c2)cc1F [Example 11] | log10 IC50 | 3.34
CC1(C)C[C@@H](C(N)=O)N(Cc2ccc(OCc3cccc(F)c3)cc2)C1 [Example 8] | log10 IC50 | 3.15
C[C@H]1C[C@@H](C(N)=O)N(Cc2ccc(OCc3cccc(F)c3)cc2F)C1 [Example 15] | log10 IC50 | 2.11
NC(=O)[C@@H]1C[C@H](F)CN1Cc1ccc(OCc2cccc(F)c2)cc1F [Example 3] | log10 IC50 | 1.48
NC(=O)[C@@H]1CC(F)(F)CN1Cc1ccc(OCc2cccc(F)c2)cc1 [Example 10] | log10 IC50 | 3.04

###

experiment: Evaluation of blood-brain barrier (BBB) after peritoneal injection in rats
Assay type: in vivo
assayContext: Sprague-Dawley, rat, brain; SD rats, intraperitoneal 10 mg/kg, 60 min; read-out: T/P Ratio Brain (brain tissue)

itemSmiles | Kp at 60 min
NC(=O)[C@@H]1C[C@H](F)CN1Cc1ccc(OCc2cccc(F)c2)cc1 | 4.47
NC(=O)[C@@H]1C[C@H](F)CN1Cc1ccc(OCc2cccc(F)c2)cc1F | 2.72

###

experiment: Evaluation of blood-brain barrier (BBB) after peritoneal injection in rats
Format: in vivo
assayContext: Sprague-Dawley, rat, cerebrospinal fluid; SD rats, intraperitoneal 10 mg/kg, 60 min; read-out: T/P Ratio CSF (cerebrospinal fluid)

itemSmiles | Kp at 60 min
NC(=O)[C@@H]1C[C@H](F)CN1Cc1ccc(OCc2cccc(F)c2)cc1 | 0.03
NC(=O)[C@@H]1C[C@H](F)CN1Cc1ccc(OCc2cccc(F)c2)cc1F | 0.021

###

// values below are reported AUC(0-inf)
experiment: Pharmacokinetic evaluation after intravenous or gavage administration in rats
Assay type: in vivo, SD rats
assayContext: SD, rat, plasma, iv, i.v group, 1 mg/kg

itemSmiles | AUC(0-inf) (ng·h/mL)
NC(=O)[C@@H]1C[C@H](F)CN1Cc1ccc(OCc2cccc(F)c2)cc1 | 507
NC(=O)[C@@H]1C[C@H](F)CN1Cc1ccc(OCc2cccc(F)c2)cc1F | 582
NC(=O)[C@@H]1C[C@@H](F)CN1Cc1ccc(OCc2cccc(F)c2)cc1 | 453

###

A collection of molecules and their measured IC50
targetOrSystem: Human recombinant monoamine oxidase A (Homo sapiens)
Sequence (P21397 whole entry): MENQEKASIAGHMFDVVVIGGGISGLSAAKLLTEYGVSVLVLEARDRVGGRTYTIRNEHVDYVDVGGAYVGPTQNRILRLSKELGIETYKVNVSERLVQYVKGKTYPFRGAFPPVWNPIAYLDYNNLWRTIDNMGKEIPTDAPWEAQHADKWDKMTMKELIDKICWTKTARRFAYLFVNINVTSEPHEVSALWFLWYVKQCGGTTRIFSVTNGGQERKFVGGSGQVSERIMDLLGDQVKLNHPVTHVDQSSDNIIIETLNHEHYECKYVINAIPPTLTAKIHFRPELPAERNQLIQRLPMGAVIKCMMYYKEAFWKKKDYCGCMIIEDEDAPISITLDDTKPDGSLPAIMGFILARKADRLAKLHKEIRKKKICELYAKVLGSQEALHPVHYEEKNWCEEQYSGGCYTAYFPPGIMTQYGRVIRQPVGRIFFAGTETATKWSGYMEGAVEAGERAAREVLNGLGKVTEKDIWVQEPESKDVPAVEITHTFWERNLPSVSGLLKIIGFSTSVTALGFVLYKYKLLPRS
experiment: Inhibitory effect on the activity of monoamine oxidase A
assayContext: human recombinant MAO-A, substrate p-tyramine hydrochloride
Description: Human recombinant monoamine oxidase A expressed in Sf9 cells was used in the test system. […] Then 20 μL of fluorescein detection reagent was added to each well, which was fully blended and incubated at room temperature for 20 minutes to produce stable fluorescence signal. The fluorescence signal was read by fluorescein labeling instrument, and the value was expressed by relative light intensity (RLU). […]
readoutName: IC50 (µM)

itemSmiles | targetOrSystem | measValue
C[C@H]1C[C@@H](C(N)=O)N(Cc2ccc(OCc3cccc(F)c3)cc2)C1 | Human recombinant monoamine oxidase A (Homo sapiens) | 27
NC(=O)[C@@H]1C[C@H](F)CN1Cc1ccc(OCc2cccc(F)c2)cc1F | Human recombinant monoamine oxidase A (Homo sapiens) | 29
C[C@H]1C[C@@H](C(N)=O)N(Cc2ccc(OCc3cccc(F)c3)cc2F)C1 | Human recombinant monoamine oxidase A (Homo sapiens) | 29
NC(=O)[C@@H]1C[C@H](F)CN1Cc1ccc(OCc2cccc(F)c2)cc1 | Human recombinant monoamine oxidase A (Homo sapiens) | 46

###

Reported AUC(0-inf) values for the following compounds.
experiment: Pharmacokinetic evaluation after intravenous or gavage administration in dogs
Format: in vivo, Beagle dogs
assayContext: beagle, dog, plasma, iv, i.v group, 1 mg/kg

compound | AUC(0-inf)
NC(=O)[C@@H]1C[C@H](F)CN1Cc1ccc(OCc2cccc(F)c2)cc1F [Example 3] | 979 ng·h/mL
NC(=O)[C@@H]1C[C@H](F)CN1Cc1ccc(OCc2cccc(F)c2)cc1 [Example 1] | 1500 ng·h/mL

###

# AUC(0-t) per entry
experiment: Pharmacokinetic evaluation after intravenous or gavage administration in rats
Format: in vivo, SD rats
assayContext: SD, rat, plasma, po, i.g group, 5 mg/kg

itemSmiles | AUC(0-t) (ng·h/mL)
NC(=O)[C@@H]1C[C@H](F)CN1Cc1ccc(OCc2cccc(F)c2)cc1 | 1400
NC(=O)[C@@H]1C[C@@H](F)CN1Cc1ccc(OCc2cccc(F)c2)cc1 | 1820
NC(=O)[C@@H]1C[C@H](F)CN1Cc1ccc(OCc2cccc(F)c2)cc1F | 1520

Source: patent US11225460B2
